Biological target: hP2X4 (Homo sapiens, UniProt Q99571)
Sequence (Q99571 whole entry): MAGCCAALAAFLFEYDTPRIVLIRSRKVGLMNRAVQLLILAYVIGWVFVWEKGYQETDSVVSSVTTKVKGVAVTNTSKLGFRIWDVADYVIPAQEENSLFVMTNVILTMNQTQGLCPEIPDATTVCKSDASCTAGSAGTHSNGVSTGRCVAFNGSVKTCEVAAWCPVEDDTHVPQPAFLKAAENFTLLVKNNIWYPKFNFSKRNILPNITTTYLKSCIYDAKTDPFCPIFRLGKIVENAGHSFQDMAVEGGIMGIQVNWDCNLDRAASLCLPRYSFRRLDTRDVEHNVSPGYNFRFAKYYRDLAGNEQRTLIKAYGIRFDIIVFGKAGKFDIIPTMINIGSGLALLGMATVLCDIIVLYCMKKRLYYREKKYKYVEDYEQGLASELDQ
Assay: cell-based
Set-up: gene P2RX4
measured.property: EC50 (nM)
Number only, in nM; omit the unit.

stdin: Can you look up the measured EC50 of Nc1ncnc2c1ncn2[C@@H]1O[C@H](COP(=O)(O)OP(=O)(O)OP(=O)(O)O)[C@@H](O)[C@H]1O [ATP] for me?
stdout: 1920
